Neuronal acetylcholine receptor subunit alpha-4 (Homo sapiens): reported AC50 for various compounds. Further: assay procedure not described here.
Sequence (P43681 whole entry): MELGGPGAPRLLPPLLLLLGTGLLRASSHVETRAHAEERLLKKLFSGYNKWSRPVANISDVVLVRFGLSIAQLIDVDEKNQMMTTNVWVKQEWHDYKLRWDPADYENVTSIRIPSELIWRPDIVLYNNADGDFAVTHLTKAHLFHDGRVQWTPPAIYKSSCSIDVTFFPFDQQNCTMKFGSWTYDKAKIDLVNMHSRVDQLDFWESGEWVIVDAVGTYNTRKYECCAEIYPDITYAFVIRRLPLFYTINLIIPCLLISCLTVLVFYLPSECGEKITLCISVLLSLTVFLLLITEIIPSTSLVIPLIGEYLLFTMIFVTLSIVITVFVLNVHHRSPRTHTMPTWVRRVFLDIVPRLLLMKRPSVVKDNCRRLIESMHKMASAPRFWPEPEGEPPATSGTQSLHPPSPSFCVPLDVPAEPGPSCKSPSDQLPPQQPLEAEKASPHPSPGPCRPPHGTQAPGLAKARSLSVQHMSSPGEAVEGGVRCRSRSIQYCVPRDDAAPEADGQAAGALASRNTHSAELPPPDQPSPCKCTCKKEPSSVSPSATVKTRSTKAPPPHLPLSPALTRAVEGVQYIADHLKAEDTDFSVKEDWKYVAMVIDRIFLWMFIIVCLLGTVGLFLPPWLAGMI

Known AC50 results, listed for orientation:
COc1ccc2cccc(CCNC(C)=O)c2c1 [AGOMELATINE] : > 10 µM
Cc1cccc(C)c1OCC(C)N (centres undefined) [MEXILETINE] : > 30 µM
O=C(O)CCn1c2c(c3ccccc31)C[C@H](NS(=O)(=O)c1ccc(F)cc1)CC2 [RAMATROBAN] : > 30 µM

[Q] Reported AC50, compound NS(=O)(=O)c1cc(Cl)c(Cl)c(S(N)(=O)=O)c1 [DICHLORPHENAMIDE] : ____
[A] > 10 µM

[Q] Reported AC50, compound C[C@H]1C[C@@H]2[C@H]([C@@H](O)C[C@@]3(C)[C@H]2CC[C@]3(O)C(=O)COC(=O)CCC(=O)O)[C@@]2(C)C=CC(=O)C=C12 [METHYLPREDNISOLONE HEMISUCCINATE] : ____
[A] > 30 µM

[Q] Reported AC50, compound CC(Cc1ccccc1)NCCC(c1ccccc1)c1ccccc1 (centres undefined) [PRENYLAMINE] : ____
[A] > 10 µM

[Q] Reported AC50, compound O=C(CCCCCCC(=O)Nc1ccccc1)NO [VORINOSTAT] : ____
[A] > 30 µM

[Q] Reported AC50, compound `Nc1nc(N)c2nc(-c3ccccc3)c(N)nc2n1` : ____
[A] > 30 µM

[Q] Reported AC50, compound CCCCCCCCCCCC[N+](C)(C)CCOc1ccccc1 [DOMIPHEN] : ____
[A] > 30 µM

---

- assay_system: Gamma-aminobutyric acid receptor subunit alpha-1 (Rattus norvegicus); further: assay procedure not described here
- Sequence (P62813 whole entry): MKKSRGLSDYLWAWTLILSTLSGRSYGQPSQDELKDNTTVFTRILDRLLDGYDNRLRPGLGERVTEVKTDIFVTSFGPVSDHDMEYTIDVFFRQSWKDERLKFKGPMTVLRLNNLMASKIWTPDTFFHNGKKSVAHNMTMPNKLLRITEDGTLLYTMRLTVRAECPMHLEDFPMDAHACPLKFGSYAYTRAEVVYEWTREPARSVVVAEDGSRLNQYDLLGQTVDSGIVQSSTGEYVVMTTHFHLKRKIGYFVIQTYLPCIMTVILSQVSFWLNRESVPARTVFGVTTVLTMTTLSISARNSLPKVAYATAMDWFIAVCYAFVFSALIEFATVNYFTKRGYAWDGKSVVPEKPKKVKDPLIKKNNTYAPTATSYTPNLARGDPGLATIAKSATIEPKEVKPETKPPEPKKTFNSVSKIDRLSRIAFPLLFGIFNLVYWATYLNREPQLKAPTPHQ
parameter_measured: AC50

Known AC50 results, listed for orientation:
CC(C)NCC(O)COc1ccc(COCCOC(C)C)cc1 (stereo not given) : > 10 µM
CCC(C(=O)O)c1ccc(CC(C)C)cc1 (stereo not given) : > 30 µM
Nc1ccc(/N=N/c2ccccc2)c(N)n1 : > 30 µM
C#C[C@]1(O)CC[C@H]2[C@@H]3CCc4cc(O)ccc4[C@H]3CC[C@@]21C : > 10 µM

Now look at this one.
[Q] # query: AC50 | item `COc1ccc(C(=O)N2CCN(c3ccc4c(c3)CCC(=O)N4)CC2)cc1OC` | system: Gamma-aminobutyric acid receptor subunit alpha-1 (Rattus norvegicus); further: assay procedure not described here
[A] > 30 µM

---

Beta-2 adrenergic receptor (Homo sapiens): reported AC50 for various molecules. Further: assay procedure not described here.
Sequence (P07550 whole entry): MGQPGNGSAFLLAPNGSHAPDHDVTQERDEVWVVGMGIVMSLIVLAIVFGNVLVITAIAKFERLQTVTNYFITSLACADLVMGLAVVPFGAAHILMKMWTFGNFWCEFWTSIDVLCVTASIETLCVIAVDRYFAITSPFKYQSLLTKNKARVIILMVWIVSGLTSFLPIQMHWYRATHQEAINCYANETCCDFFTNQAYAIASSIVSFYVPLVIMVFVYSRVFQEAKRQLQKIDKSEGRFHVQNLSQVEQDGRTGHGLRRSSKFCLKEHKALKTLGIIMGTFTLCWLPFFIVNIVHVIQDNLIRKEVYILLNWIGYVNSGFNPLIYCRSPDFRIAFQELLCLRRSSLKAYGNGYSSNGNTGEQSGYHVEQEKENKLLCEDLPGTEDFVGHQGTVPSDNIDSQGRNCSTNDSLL

CC1=CC(=O)c2ccccc2C1=O : > 10 µM
CO/N=C(\C(=O)N[C@@H]1C(=O)N2C(C(=O)[O-])=C(C[N+]3(C)CCCC3)CS[C@H]12)c1csc(N)n1 : > 30 µM
O=C(Cn1ccnc1[N+](=O)[O-])NCc1ccccc1 : > 30 µM

[Q] Reported AC50, molecule NS(=O)(=O)c1cc(Cl)c(Cl)c(S(N)(=O)=O)c1 [DICHLORPHENAMIDE] : ____
[A] > 10 µM

[Q] Reported AC50, molecule O=C1CCC(N2C(=O)c3ccccc3C2=O)C(=O)N1 (stereo not given) [THALIDOMIDE] : ____
[A] > 10 µM

---

- assay_system: 5-hydroxytryptamine receptor 2A (Homo sapiens, UniProt P28223); further: assay procedure not described here
- Sequence (P28223 whole entry): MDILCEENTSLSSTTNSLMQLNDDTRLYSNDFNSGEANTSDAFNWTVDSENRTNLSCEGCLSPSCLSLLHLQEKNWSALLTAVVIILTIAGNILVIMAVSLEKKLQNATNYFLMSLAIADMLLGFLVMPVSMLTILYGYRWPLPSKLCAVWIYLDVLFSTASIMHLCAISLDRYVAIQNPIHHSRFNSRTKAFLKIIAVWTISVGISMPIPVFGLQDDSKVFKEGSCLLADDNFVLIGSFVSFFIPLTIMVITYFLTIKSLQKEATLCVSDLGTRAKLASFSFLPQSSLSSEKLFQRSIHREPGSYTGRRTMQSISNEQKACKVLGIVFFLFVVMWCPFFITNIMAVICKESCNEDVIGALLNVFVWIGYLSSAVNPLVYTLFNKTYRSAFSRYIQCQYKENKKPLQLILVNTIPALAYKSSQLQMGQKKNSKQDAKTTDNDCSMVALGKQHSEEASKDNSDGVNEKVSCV
- Type: functional, cell-based
parameter_measured: AC50

Known AC50 results, listed for orientation:
COC(=O)[C@@H]1CC2=CC(=O)CC[C@]2(C)[C@@]23O[C@@H]2C[C@@]2(C)[C@@H](CC[C@@]24CCC(=O)O4)[C@H]13 : > 30 µM
C=C1CC[C@@]2(O)[C@H]3Cc4ccc(O)c5c4[C@@]2(CCN3CC2CC2)[C@H]1O5 : > 30 µM
COc1ccc2c(c1)C(=O)N(CCc1ccc(S(=O)(=O)NC(=O)NC3CCCCC3)cc1)C(=O)C2(C)C : > 30 µM
NS(=O)(=O)c1cc(Cl)c(Cl)c(S(N)(=O)=O)c1 [DICHLORPHENAMIDE] : > 10 µM
C#CC1(OC(N)=O)CCCCC1 [ETHINAMATE] : > 10 µM

[Q] Reported AC50, compound `N[C@@H](CSCC(=O)O)C(=O)O` : ____
[A] > 30 µM

[Q] Reported AC50, compound `CN(CCCN1c2ccccc2CCc2ccccc21)CC(=O)c1ccc(Cl)cc1` : ____
[A] > 30 µM

---

Gamma-aminobutyric acid receptor subunit alpha-1 (Rattus norvegicus): reported AC50 for various compounds. Further: assay procedure not described here.

CC[C@H](C)C(=O)O[C@H]1C[C@H](O)C=C2C=C[C@H](C)[C@H](CC[C@@H](O)C[C@@H](O)CC(=O)O)[C@H]21 [PRAVASTATIN] : > 10 µM
O=C1CCC(N2C(=O)c3ccccc3C2=O)C(=O)N1 (centres undefined) [THALIDOMIDE] : > 10 µM
O=C(O)Cc1cn(-c2ccccc2)nc1-c1ccc(Cl)cc1 [LONAZOLAC] : > 30 µM

Now look at this one.
[Q] Reported AC50, compound CS(=O)(=O)c1ccc([C@@H](O)[C@@H](CO)NC(=O)C(Cl)Cl)cc1 [THIAMPHENICOL] : ____
[A] > 30 µM

---

Alpha-2B adrenergic receptor (Homo sapiens, UniProt P18089): reported AC50 for various molecules. Further: assay procedure not described here.
Sequence (P18089 whole entry): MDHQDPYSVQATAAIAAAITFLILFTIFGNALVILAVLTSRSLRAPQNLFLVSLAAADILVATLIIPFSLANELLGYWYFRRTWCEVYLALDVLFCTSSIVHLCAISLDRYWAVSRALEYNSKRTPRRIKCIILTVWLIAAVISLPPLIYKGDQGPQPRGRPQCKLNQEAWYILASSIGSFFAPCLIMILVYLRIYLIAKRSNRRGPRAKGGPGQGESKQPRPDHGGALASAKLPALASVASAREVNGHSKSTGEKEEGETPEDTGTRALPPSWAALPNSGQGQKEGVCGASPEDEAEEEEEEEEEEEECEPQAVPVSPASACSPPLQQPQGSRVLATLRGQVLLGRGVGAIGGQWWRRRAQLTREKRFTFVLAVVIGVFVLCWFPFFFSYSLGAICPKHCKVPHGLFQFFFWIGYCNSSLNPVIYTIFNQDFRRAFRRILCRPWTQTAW

Known AC50 results, listed for orientation:
O=C(CCCCCCC(=O)Nc1ccccc1)NO : > 30 µM
C#CC1(OC(N)=O)CCCCC1 [ETHINAMATE] : > 10 µM
CN(CCOc1ccc(NS(C)(=O)=O)cc1)CCc1ccc(NS(C)(=O)=O)cc1 [DOFETILIDE] : > 10 µM
COCC1=C(C(=O)OC(C)OC(=O)OC(C)C)N2C(=O)[C@@H](NC(=O)/C(=N\OC)c3csc(N)n3)[C@H]2SC1 (some centres not stated) : > 30 µM
C1=Cc2cccc(OCC3CNCCO3)c2C1 (configuration not stated) : > 30 µM
COc1cc(Nc2c(C#N)cnc3cc(OCCCN4CCN(C)CC4)c(OC)cc23)c(Cl)cc1Cl : > 10 µM
N[C@@H](CSCC(=O)O)C(=O)O : > 30 µM
CC(C)C(=O)OCC(=O)[C@@]12O[C@H](C3CCCCC3)O[C@@H]1C[C@H]1[C@@H]3CCC4=CC(=O)C=C[C@]4(C)[C@H]3[C@@H](O)C[C@@]12C [CICLESONIDE] : > 10 µM
OCCN1CCN(CCCN2c3ccccc3C=Cc3ccccc32)CC1 : 10 µM
Cc1ccc(C(=O)c2cc(O)c(O)c([N+](=O)[O-])c2)cc1 : > 10 µM

[Q] # query: AC50 | item `[H]/N=C(/N)c1ccc(NCc2nc3cc(C(=O)N(CCC(=O)O)c4ccccn4)ccc3n2C)cc1` | system: Alpha-2B adrenergic receptor (Homo sapiens, UniProt P18089); further: assay procedure not described here
[A] > 30 µM

[Q] # query: AC50 | item `CCOC(=O)[C@H](CCc1ccccc1)N[C@H]1CCCN2CCC[C@@H](C(=O)O)N2C1=O` | system: Alpha-2B adrenergic receptor (Homo sapiens, UniProt P18089); further: assay procedure not described here
[A] > 30 µM

[Q] # query: AC50 | item `C#C[C@]1(O)CC[C@H]2[C@@H]3CCC4=CCCC[C@@H]4[C@H]3CC[C@@]21C` | system: Alpha-2B adrenergic receptor (Homo sapiens, UniProt P18089); further: assay procedure not described here
[A] > 30 µM

[Q] # query: AC50 | item `O=C(O)CCCc1ccccc1` | system: Alpha-2B adrenergic receptor (Homo sapiens, UniProt P18089); further: assay procedure not described here
[A] > 30 µM

[Q] # query: AC50 | item `O=C(NC[C@H]1CN(c2ccc(N3CCOCC3=O)cc2)C(=O)O1)c1ccc(Cl)s1` | system: Alpha-2B adrenergic receptor (Homo sapiens, UniProt P18089); further: assay procedure not described here
[A] > 30 µM

[Q] # query: AC50 | item `Cc1cc(-c2ccccc2)nnc1NCCN1CCOCC1` | system: Alpha-2B adrenergic receptor (Homo sapiens, UniProt P18089); further: assay procedure not described here
[A] > 10 µM

[Q] # query: AC50 | item `COC(=O)N[C@H](C(=O)N[C@@H](Cc1ccccc1)[C@@H](O)CN(Cc1ccc(-c2ccccn2)cc1)NC(=O)[C@@H](NC(=O)OC)C(C)(C)C)C(C)(C)C` | system: Alpha-2B adrenergic receptor (Homo sapiens, UniProt P18089); further: assay procedure not described here
[A] > 10 µM

---

- assay_system: UniProt P41595
- Sequence (P41595 whole entry): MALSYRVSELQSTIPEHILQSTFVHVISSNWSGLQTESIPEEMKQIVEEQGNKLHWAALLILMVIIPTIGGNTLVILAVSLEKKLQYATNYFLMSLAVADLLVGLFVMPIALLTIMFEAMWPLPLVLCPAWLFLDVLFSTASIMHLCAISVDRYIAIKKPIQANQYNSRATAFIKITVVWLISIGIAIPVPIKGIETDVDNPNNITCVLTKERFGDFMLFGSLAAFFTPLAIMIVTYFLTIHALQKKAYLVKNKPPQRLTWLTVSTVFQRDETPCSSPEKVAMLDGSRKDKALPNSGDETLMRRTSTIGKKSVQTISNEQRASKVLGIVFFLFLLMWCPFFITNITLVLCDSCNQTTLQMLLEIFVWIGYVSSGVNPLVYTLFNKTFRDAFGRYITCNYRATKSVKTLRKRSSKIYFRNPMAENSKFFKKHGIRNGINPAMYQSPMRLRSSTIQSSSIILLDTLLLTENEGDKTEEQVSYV
- Assay type: functional, cell-based
Below, each entry is listed with its recorded AC50.

Known AC50 results, listed for orientation:
Cc1c(Cl)cccc1Nc1ccccc1C(=O)O [TOLFENAMIC ACID] : > 30 µM
CO/N=C(\C(=O)N[C@@H]1C(=O)N2C(C(=O)[O-])=C(C[N+]3(C)CCCC3)CS[C@H]12)c1csc(N)n1 : > 300 µM

Now look at this one.
[Q] Reported AC50, molecule CC[C@]1(O)C[C@@H]2CN(CCc3c([nH]c4ccccc34)[C@@](C(=O)OC)(c3cc4c(cc3OC)N(C)[C@H]3[C@@](O)(C(N)=O)[C@H](O)[C@]5(CC)C=CCN6CC[C@]43[C@@H]65)C2)C1 [VINDESINE] : ____
[A] > 30 µM
